Molecular target: Mitogen-activated protein kinase 10 (Homo sapiens) (UniProt P53779)
Sequence (P53779 whole entry): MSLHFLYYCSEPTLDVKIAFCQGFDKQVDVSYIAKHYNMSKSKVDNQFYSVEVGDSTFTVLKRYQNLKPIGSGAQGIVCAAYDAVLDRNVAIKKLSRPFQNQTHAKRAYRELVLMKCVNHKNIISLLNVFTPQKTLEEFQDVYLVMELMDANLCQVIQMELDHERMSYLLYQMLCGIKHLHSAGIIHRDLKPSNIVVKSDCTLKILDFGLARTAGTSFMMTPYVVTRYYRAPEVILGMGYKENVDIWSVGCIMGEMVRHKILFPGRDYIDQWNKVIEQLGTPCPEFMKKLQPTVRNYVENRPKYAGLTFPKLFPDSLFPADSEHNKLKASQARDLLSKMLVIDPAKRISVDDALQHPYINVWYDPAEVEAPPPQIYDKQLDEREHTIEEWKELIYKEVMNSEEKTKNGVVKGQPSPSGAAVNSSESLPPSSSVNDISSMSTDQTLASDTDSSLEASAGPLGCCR
Conditions: at 1 µM

{"MOLECULAR STRING": "O=c1[nH]c2ccccc2n1C1CCN(Cc2ccc(-c3nc4cc5[nH]cnc5cc4nc3-c3ccccc3)cc2)CC1", "U": "%", "residual activity": 105}
{"MOLECULAR STRING": "O=[N+]([O-])/C=C/c1ccc2c(c1)OCO2", "U": "%", "residual activity": 88}
{"MOLECULAR STRING": "COc1cc(OC)c(/C=C2\\C(=O)Nc3ccccc32)c(OC)c1", "U": "%", "residual activity": 85}
{"MOLECULAR STRING": "CCc1nc(-c2ccc(OC)cc2)[nH]c1-c1ccncc1", "U": "%", "residual activity": 126}
{"MOLECULAR STRING": "O=C1Nc2ccc3ncsc3c2/C1=C/c1c[nH]cn1", "U": "%", "residual activity": 20}

* * *

Target: G protein-coupled receptor kinase 6 (Homo sapiens) (UniProt P43250)
Sequence (P43250 whole entry, looked up): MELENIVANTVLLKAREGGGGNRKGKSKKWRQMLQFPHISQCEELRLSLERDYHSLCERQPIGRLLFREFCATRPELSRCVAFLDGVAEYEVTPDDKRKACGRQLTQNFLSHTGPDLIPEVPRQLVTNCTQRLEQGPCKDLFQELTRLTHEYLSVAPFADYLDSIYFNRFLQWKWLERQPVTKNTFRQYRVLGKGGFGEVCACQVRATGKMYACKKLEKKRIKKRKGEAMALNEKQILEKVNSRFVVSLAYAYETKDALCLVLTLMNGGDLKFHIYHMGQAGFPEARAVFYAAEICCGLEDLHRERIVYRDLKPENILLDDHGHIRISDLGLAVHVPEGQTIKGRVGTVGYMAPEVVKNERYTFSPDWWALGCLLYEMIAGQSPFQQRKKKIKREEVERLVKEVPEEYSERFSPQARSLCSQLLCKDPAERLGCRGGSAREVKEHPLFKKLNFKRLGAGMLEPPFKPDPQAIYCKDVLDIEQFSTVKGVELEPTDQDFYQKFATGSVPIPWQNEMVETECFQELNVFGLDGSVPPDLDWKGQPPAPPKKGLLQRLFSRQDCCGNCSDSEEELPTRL
Settings: at 1 µM

{"MOLECULE": "O=C(c1ccccc1)c1ccc(N2CCOCC2)cc1O", "U": "%", "residual activity": 96}
{"MOLECULE": "COc1cc2ncnc(Nc3ccc(Oc4ccccc4)cc3)c2cc1OC", "U": "%", "residual activity": 93}
{"MOLECULE": "Nc1cccc(-c2cc3c(Oc4cccc(O)c4)ncnc3[nH]2)c1", "U": "%", "residual activity": 93}
{"MOLECULE": "Nc1n[nH]c2nc3ccccc3nc12", "U": "%", "residual activity": 93}
{"MOLECULE": "Cc1cncc2cccc(S(=O)(=O)N3CCCN(C(=O)CN)C[C@H]3C)c12", "U": "%", "residual activity": 84}
{"MOLECULE": "CC(C)n1cnc2/c(=N/c3cccc(Cl)c3)nc(NCCO)[nH]c21", "U": "%", "residual activity": 90}
{"MOLECULE": "CCn1cnc2c(Nc3cccc(Cl)c3)nc(N[C@@H]3CCCC[C@@H]3N)nc21", "U": "%", "residual activity": 91}
{"MOLECULE": "CCN(CC)CCNC(=O)c1c(C)[nH]c(/C=C2\\C(=O)Nc3ccc(Cl)cc32)c1C", "U": "%", "residual activity": 68}
{"MOLECULE": "Oc1c2ccccc2c2c3c(cccc13)N=N2", "U": "%", "residual activity": 87}
{"MOLECULE": "CCOC(=O)c1c(C)[nH]c(/C=C2\\C(=O)Nc3ccccc32)c1C", "U": "%", "residual activity": 98}
{"MOLECULE": "O=C1NC(=O)c2c1c1c3ccccc3[nH]c1n1cncc21", "U": "%", "residual activity": 82}
{"MOLECULE": "CC(=O)O/N=C1\\C(=C2\\C(=O)Nc3cc(Br)ccc32)Nc2ccccc21", "U": "%", "residual activity": 86}
{"MOLECULE": "Cn1cnc2cc3c(Nc4cccc(Br)c4)ncnc3cc21", "U": "%", "residual activity": 97}
{"MOLECULE": "CC[n+]1c(/C=C/N(C)c2ccccc2)n(-c2ccccc2)c2ccc(-c3nc4ccccc4s3)cc21", "U": "%", "residual activity": 101}
{"MOLECULE": "CC#CC(=O)Nc1cc2c(Nc3ccc(F)c(Cl)c3)ncnc2cn1", "U": "%", "residual activity": 95}
{"MOLECULE": "CNc1cc2c(Nc3cccc(Br)c3)ncnc2cn1", "U": "%", "residual activity": 95}
{"MOLECULE": "NC(=O)c1ccc(-c2nc(-c3ccc4c(c3)OCCO4)c(-c3ccccn3)[nH]2)cc1", "U": "%", "residual activity": 95}
{"MOLECULE": "CCN1/C(=C/C(C)=O)Sc2ccc(OC)cc21", "U": "%", "residual activity": 100}
{"MOLECULE": "O=C1Nc2ccccc2/C1=C1/Nc2ccccc2/C1=N\\OCCC(O)CO (stereo not drawn)", "U": "%", "residual activity": 68}
{"MOLECULE": "O=C1NC(=O)/C(=C/c2ccc3c(c2)OC(F)(F)O3)S1", "U": "%", "residual activity": 93}
{"MOLECULE": "CC(C)[C@H](CO)Nc1nc(Nc2cc(N)cc(Cl)c2)c2ncn(C(C)C)c2n1", "U": "%", "residual activity": 90}
{"MOLECULE": "O=C1NC(=O)c2cc(Nc3ccc(F)cc3)c(Nc3ccc(F)cc3)cc21", "U": "%", "residual activity": 85}
{"MOLECULE": "COc1cc2ncnc(Nc3ccc(NC(=O)c4ccccc4)cc3)c2cc1OC", "U": "%", "residual activity": 111}
